- TEST_METHOD_NOTES: Solubility at equilibrium in water
- Type: physicochemical
- DETAILS: thermodynamic from solid
- Experimental: It is a very lipophilic compound (Log P approximately 7), wherein the solubility at equilibrium in water is <1 μg/ml. It is thus particularly difficult to formulate for parenteral administration.
READOUT_LABEL: solubility

CC/C=C\C/C=C\C/C=C\C/C=C\C/C=C\C/C=C\CCC(=O)OCc1cccnc1
< 1 µg/mL

Origin of the recorded values: patent US8753652B2
